// pKd lookup, one value per entry
- Assayed System: T1, AAV8 (adeno-associated virus 8)
- T1 construct: also called adeno-associated virus serotype 8
- Measurement Protocol: SPR, AAV amine-coupled to CM5 chip;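 note: nanobodies flowed as analyte at seven concentrations spanning 1–100 nM over immobilized AAV (500–800 RU), kinetic constants derived by fitting the binding curves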
pKd: −log10 of the molar value.

Binder	pKd
A4-094 (VHH) VHH: VQLQESGGGLVQPGGSLRLSCVASGSIFVINTMGWYRQAPGKQRELVATVTRDGGTNYADSVKGRFTISRDNAKNTVYLQMNSLRPEDTAVYYCHIDEIRESSWTTSNLWGQGTQVTVSS	7.06
A4-070 (VHH) VHH: VQLQESGGGLVQPGGSLRLSCAASGSIFSINSMGWYRQAPGKWRELVATVTRGGSTNYANSVKGRFTISRDNAKNTVYLQMNTLRPEDTAVYYCHLDEVRDSSWTTSNLWGQGTQVTVSS	7.68
A4-075 (VHH) VHH: VQLQESGGGLVQSGGSLRLSCAASGSMFSLNTMGWYRQAPGKQRELVATITRGGGTNYADSVKGRFTISRDNAKNTVYLQMNSLRPEDTAVYYCHVDELRQSSWTTSNLWGQGTQVTVSS	8.02
A4-082 (VHH) VHH: VQLQESGGGLVQPGGSLRLSCAASGSRFSLNTMGWYRQAPGKQRELVATVTRGGSTKYADFVKGRFTISRDNAKNTVYLQMNSLRPEDTAVYYCHVDELRESGWTTSNLWGQGTQVTVSS	7.33
A4-098 (VHH) VHH: VQLQESGGGLVQPGGSLRLSCIASGSIFSINTMGWYRQAPGKQRELVATITRGGNTNYGDSVKGRFTISRDNAKNTVYLQMNTLRPEDTAVYYCHVDEIRESSWTTSNLWGQGTQVTVSS	7.63
A4-057 (VHH) VHH: VQLQESGGGLVQPGGSLRLSCAASGSIFSINTMGWYRQAPGKQREKVAAVTRGGSTNYADSVKGRFTISRDNAKNTVYLQMNSLRPEDTAVYYCHVDEVRQSSWTTSNLWGQGTQVTVSS	6.99
A4-054 (VHH) VHH: VQLQESGGGLVQPGGSLRLSCAASGSAFSINTMGWYRQAPGKQRELVAAVTRGGSTNYADSVKGRFTISRDNAKNTVYLQMNSLRPEDTAVYYCHVDEVRQSSWTTSNLWGQGTQVTVSS	6.43
A4-058 (VHH) VHH: VQLQESGGGLVQPGGSLRLSCAASGSIFSINTMGWYRQAPAKQREIVATVTRDGSTNYAESVKGRFTISRDNAKNTVYLQMNSLRPEDTAVYYCHLDEVRQSTWTTSNLWGQGTQVTVSS	7.48

Measured values drawn from patent US20260193326A1 for this set.
